Data origin: patent US9428499B2

Consider the following molecules; for each one, report its inhibition at 0.01 µM.
test system: MEK phosphorylation (S218 and S222); assay: Analysis of B-Raf-mediated MEK phosphorylation (Alphascreen SureFire Phospho-MEK); assay type: cell-based, human; conditions: read-out: % Inhibition of MEK phosphorylation; 10 nM; human melanoma cells, 1 h; read-out: % Inhibition of MBK phosphorylation
Numbers only, in %.

Cc1c(=O)n(C)c(Nc2ccc(I)cc2F)c2c(=O)n(C3CC3)c(=O)n(-c3cccc(C4(C(N)=O)CC4)c3)c12 [Compound 78]; 56.7

For the 3 molecules below, give their inhibition at 0.01 µM values.
1. Cc1c(=O)n(C)c(Nc2ccc(I)cc2F)c2c(=O)n(C3CC3)c(=O)n(-c3cccc(C(=O)NC4CC4)c3)c12 [Compound 37]
2. Cc1c(=O)n(C)c(Nc2ccc(I)cc2F)c2c(=O)n(C3CC3)c(=O)n(-c3cccc(CC(=O)N(C)C)c3)c12 [Compound 29]
3. CNC(=O)COc1cccc(-n2c(=O)[nH]c(=O)c3c(Nc4ccc(I)cc4F)n(C)c(=O)c(C)c32)c1 [Compound 5]

Response:
1: 85.9; 2: 72.9; 3: 97.4
